Values compiled from BigSolDB 2.1.

run-conditions: in ethyl acetate, 278.15 K
measured-endpoint: solubility (mole fraction)
One number for each entry.

Recorded solubility (mole fraction) (compound `NC(=O)[C@@H]1CCCN1` ): 0.0134

---

run-conditions: in n-heptane, 308.15 K
measured-endpoint: solubility (mole fraction)

For record `NC(=O)[C@@H]1CCCN1` the listed solubility (mole fraction) is 0.0018

---

run-conditions: in n-heptane, 283.15 K
measured-endpoint: solubility (mole fraction)
Numbers only.

Lookup result for `NC(=O)[C@@H]1CCCN1` ; measured solubility (mole fraction): 0.00036

---

run-conditions: in DMF, 303.15 K
measured-endpoint: solubility (mole fraction)
Numbers only.

The reported value for `NC(=O)[C@@H]1CCCN1` in terms of solubility (mole fraction) is 0.156

---

run-conditions: in n-propanol, 298.15 K
measured-endpoint: solubility (mole fraction)
Answers are plain numbers.

Entry under test: `NC(=O)[C@@H]1CCCN1` . Its solubility (mole fraction) was 0.111

---

run-conditions: in ethyl acetate, 323.15 K
measured-endpoint: solubility (mole fraction)
Numbers only.

Entry `NC(=O)[C@@H]1CCCN1` — recorded solubility (mole fraction) = 0.154

---

run-conditions: in n-propanol, 318.15 K
measured-endpoint: solubility (mole fraction)
Give bare numbers.

Reported solubility (mole fraction) ( `NC(=O)[C@@H]1CCCN1` ) = 0.259

---

run-conditions: in acetone, 323.15 K
measured-endpoint: solubility (mole fraction)
Answers are plain numbers.

For reference, reported solubility (mole fraction) for `NC(=O)[C@@H]1CCCN1` stands at 0.252

---

run-conditions: in cyclohexane, 308.15 K
measured-endpoint: solubility (mole fraction)
One number for each entry.

`NC(=O)[C@@H]1CCCN1` has a reported solubility (mole fraction) of 0.00079

---

run-conditions: in n-hexane, 318.15 K
measured-endpoint: solubility (mole fraction)
Numbers only.

# solubility (mole fraction) (molecule: `NC(=O)[C@@H]1CCCN1` ) is 0.00159

---

run-conditions: in n-heptane, 293.15 K
measured-endpoint: solubility (mole fraction)

solubility (mole fraction) reported for this compound `NC(=O)[C@@H]1CCCN1` : 0.00068

---

run-conditions: in n-propanol, 293.15 K
measured-endpoint: solubility (mole fraction)
Numbers only.

For reference, reported solubility (mole fraction) for `NC(=O)[C@@H]1CCCN1` stands at 0.0933

---

run-conditions: in n-hexane, 288.15 K
measured-endpoint: solubility (mole fraction)

Kindly note the recorded solubility (mole fraction) for `NC(=O)[C@@H]1CCCN1` , which is 0.00015

---

run-conditions: in n-hexane, 283.15 K
measured-endpoint: solubility (mole fraction)
Numbers only.

Value of measured solubility (mole fraction) for the entry `NC(=O)[C@@H]1CCCN1` : 9e-05

---

run-conditions: in n-heptane, 288.15 K
measured-endpoint: solubility (mole fraction)
Give bare numbers.

// field: solubility (mole fraction); key: `NC(=O)[C@@H]1CCCN1` ; value = 0.00049

---

run-conditions: in acetonitrile, 293.15 K
measured-endpoint: solubility (mole fraction)
One number for each entry.

// field: solubility (mole fraction); key: `NC(=O)[C@@H]1CCCN1` ; value = 0.0838

---

run-conditions: in THF, 308.15 K
measured-endpoint: solubility (mole fraction)
Answers are plain numbers.

Field solubility (mole fraction) (entry `NC(=O)[C@@H]1CCCN1` ) reads 0.189

---

run-conditions: in cyclohexane, 278.15 K
measured-endpoint: solubility (mole fraction)
Answers are plain numbers.

Looking up `NC(=O)[C@@H]1CCCN1` , I see its solubility (mole fraction) listed as 6e-05

---

run-conditions: in cyclohexane, 313.15 K
measured-endpoint: solubility (mole fraction)
Numbers only.

Reported solubility (mole fraction) of `NC(=O)[C@@H]1CCCN1` : 0.00124

---

run-conditions: in THF, 318.15 K
measured-endpoint: solubility (mole fraction)
Give bare numbers.

# solubility (mole fraction) (compound: `NC(=O)[C@@H]1CCCN1` ) is 0.287

---

run-conditions: in ethyl acetate, 288.15 K
measured-endpoint: solubility (mole fraction)
Numbers only.

The reported solubility (mole fraction) of the compound `NC(=O)[C@@H]1CCCN1` was 0.0242

---

run-conditions: in ethyl acetate, 298.15 K
measured-endpoint: solubility (mole fraction)

Entry `NC(=O)[C@@H]1CCCN1` — recorded solubility (mole fraction) = 0.042

---

run-conditions: in acetonitrile, 288.15 K
measured-endpoint: solubility (mole fraction)
Give bare numbers.

For `NC(=O)[C@@H]1CCCN1` the compound record lists solubility (mole fraction) as 0.073

---

run-conditions: in DMF, 313.15 K
measured-endpoint: solubility (mole fraction)
Give bare numbers.

The compound `NC(=O)[C@@H]1CCCN1` showed solubility (mole fraction) equal to 0.238

---

run-conditions: in n-propanol, 303.15 K
measured-endpoint: solubility (mole fraction)
One number for each entry.

// recorded solubility (mole fraction) for `NC(=O)[C@@H]1CCCN1` : 0.13

---

run-conditions: in acetonitrile, 303.15 K
measured-endpoint: solubility (mole fraction)
Numbers only.

Looking up `NC(=O)[C@@H]1CCCN1` , I found its solubility (mole fraction) recorded as 0.106

---

run-conditions: in isopropanol, 283.15 K
measured-endpoint: solubility (mole fraction)
Give bare numbers.

Measured solubility (mole fraction), `NC(=O)[C@@H]1CCCN1` : 0.0618

---

run-conditions: in isopropanol, 293.15 K
measured-endpoint: solubility (mole fraction)
Answers are plain numbers.

Sure, the documented solubility (mole fraction) for `NC(=O)[C@@H]1CCCN1` is 0.0995

---

run-conditions: in n-propanol, 323.15 K
measured-endpoint: solubility (mole fraction)
Numbers only.

Kindly note the recorded solubility (mole fraction) for `NC(=O)[C@@H]1CCCN1` , which is 0.328

---

run-conditions: in isopropanol, 288.15 K
measured-endpoint: solubility (mole fraction)
One number for each entry.

For reference, reported solubility (mole fraction) for `NC(=O)[C@@H]1CCCN1` stands at 0.0795

---

run-conditions: in cyclohexane, 298.15 K
measured-endpoint: solubility (mole fraction)
One number for each entry.

Kindly note the recorded solubility (mole fraction) for `NC(=O)[C@@H]1CCCN1` , which is 0.00032

---

run-conditions: in acetone, 293.15 K
measured-endpoint: solubility (mole fraction)
One number for each entry.

The recorded solubility (mole fraction) for entry `NC(=O)[C@@H]1CCCN1` equals 0.113

---

run-conditions: in cyclohexane, 283.15 K
measured-endpoint: solubility (mole fraction)
Give bare numbers.

`NC(=O)[C@@H]1CCCN1` yielded solubility (mole fraction) of 9e-05

---

run-conditions: in acetonitrile, 318.15 K
measured-endpoint: solubility (mole fraction)
One number for each entry.

Please fill in: solubility (mole fraction) reported for `NC(=O)[C@@H]1CCCN1` = 0.138

---

run-conditions: in n-heptane, 298.15 K
measured-endpoint: solubility (mole fraction)
One number for each entry.

The measured solubility (mole fraction) associated with `NC(=O)[C@@H]1CCCN1` reads 0.00096

---

run-conditions: in THF, 323.15 K
measured-endpoint: solubility (mole fraction)
Answers are plain numbers.

The value of solubility (mole fraction) measured for the molecule `NC(=O)[C@@H]1CCCN1` turned out to be 0.362

---

run-conditions: in cyclohexane, 303.15 K
measured-endpoint: solubility (mole fraction)
Give bare numbers.

The recorded solubility (mole fraction) for entry `NC(=O)[C@@H]1CCCN1` equals 0.00051

---

run-conditions: in acetone, 313.15 K
measured-endpoint: solubility (mole fraction)
Numbers only.

`NC(=O)[C@@H]1CCCN1` yielded solubility (mole fraction) of 0.2

---

run-conditions: in DMF, 323.15 K
measured-endpoint: solubility (mole fraction)
Answers are plain numbers.

The reported value for `NC(=O)[C@@H]1CCCN1` in terms of solubility (mole fraction) is 0.347

---

run-conditions: in n-hexane, 323.15 K
measured-endpoint: solubility (mole fraction)

Form field solubility (mole fraction), entry `NC(=O)[C@@H]1CCCN1` : 0.00212

---

run-conditions: in acetone, 303.15 K
measured-endpoint: solubility (mole fraction)
One number for each entry.

For this compound ( `NC(=O)[C@@H]1CCCN1` ), measured solubility (mole fraction) is 0.154

---

run-conditions: in ethyl acetate, 283.15 K
measured-endpoint: solubility (mole fraction)

Form field solubility (mole fraction), entry `NC(=O)[C@@H]1CCCN1` : 0.0179

---

run-conditions: in n-hexane, 308.15 K
measured-endpoint: solubility (mole fraction)
Numbers only.

The reported solubility (mole fraction) of the compound `NC(=O)[C@@H]1CCCN1` was 0.00077

---

run-conditions: in acetone, 288.15 K
measured-endpoint: solubility (mole fraction)
Give bare numbers.

`NC(=O)[C@@H]1CCCN1` has a reported solubility (mole fraction) of 0.0956

---

run-conditions: in n-heptane, 323.15 K
measured-endpoint: solubility (mole fraction)
One number for each entry.

Note to self: solubility (mole fraction) recorded for `NC(=O)[C@@H]1CCCN1` was 0.00401

---

run-conditions: in acetone, 298.15 K
measured-endpoint: solubility (mole fraction)
One number for each entry.

The molecule identified as `NC(=O)[C@@H]1CCCN1` registered its solubility (mole fraction) at 0.133
